assayProtocol: NCI Yeast Anticancer Drug Screen. Data for the cln2 rad14 strain (AID 165)
protocolConditions: S. cerevisiae cln2 rad14 strain, at 50.0 µM
The panel holds about 79,000 compounds, 15% with a hit somewhere; the sample as a whole holds those more often. The source made the active and inactive calls. No stated cut-off is given here; in the data, active means growth inhibition above about 70%; inactive means the rest.
Labels: active, inactive

compound	assignedLabel
O=C(/C=N/O)Nc1cccc(Cl)c1I	inactive
Nc1ccccc1C(=O)Nc1ccccn1	inactive
O=C(CCCCCC(=O)NO)NO	inactive
CC(=O)Nc1ccc(NC(=O)Nc2cc(Cl)ccc2C)cc1	inactive
O=c1c2ccccc2nc(-c2ccc(Br)cc2)n1NC1OC(CO)C(O)C(O)C1O (configuration not stated)	inactive
C[C@@H]1CC[C@@H](C)[C@](C)(CCc2ccoc2)C/C=C\C=C/1C(=O)O	active
CCN(CC)CCNc1ccc2ncn3c4ccccc4c(=O)c1c23	inactive
NC(=O)CSCC(N)C(=O)O (configuration not stated)	inactive
COc1ccc(Nc2cccc(Cl)c2)cc1	active
c1ccc(CCCCc2ccc(CCCCc3ccccc3)cc2)cc1	inactive
CC(NC(=O)OC(C)(C)C)C(=O)NC(Cc1ccccc1)C(=O)NCC(=O)ON=C1CCCC1 (configuration not stated)	inactive
COc1cccc(Cc2c3cc(OC)ccc3cc[n+]2C)c1	inactive
